Reported inhibition is given for each of the following compounds.
- target-of-assay: Hexose transporter 1 (Plasmodium falciparum) (UniProt O97467)
- assay-details: ST_JUDE_LEISH: Cytotoxicity at 2uM final concentration against transgenic Leishmania Mexicana promastigotes LmPfHT that are glucose transport deficient and complemented with the Plasmodium falciparum hexose transporter. Activity is measured by DNA content using SYBR green in vitro
- Type: functional
measured-parameter: inhibition (%)

1) CC1(C)N=C(N)N=C(N)N1OCCCCON1C(N)=NC(N)=NC1(C)C    3.55
2) COC(=O)[C@@H](NC(=O)[C@H](CC(C)C)Nc1ccc(C#N)c2ccccc12)c1ccc(O)cc1    0.76
3) Cc1cc2[nH]c(-c3ccc(C(=O)NCCCN4CCN(c5cccc(Cl)c5)CC4)s3)nc2cc1Cl    3.29
4) Cc1cc(N[C@@H](Cc2ccccc2)C(=O)NCCCOC(C)C)nc(NCC2CCCCC2)n1    11.7
5) CCN1CCN(C(=O)NC(C(=O)N(C)Cc2ccc(-c3ccc(C(F)(F)F)cc3)cc2)c2cccs2)C(=O)C1=O (centres undefined)    0.77
6) CC(=O)N(C)c1cccc(C(=O)Nc2ccc(-c3cccc(-c4nc5cc(C(F)(F)F)ccc5[nH]4)c3)cc2)c1    10.1
7) NCc1ccc(-c2ccc3c(N)nccc3c2)cc1    0.57
8) O=C(/C=C/c1ccc(Cl)c(Cl)c1)NCCCCCCN1CCCN(C(=O)Nc2ccc(Cl)c(Cl)c2)CC1    2.49
9) COc1ccccc1C1CCN(C2CCC(NC(=O)/C=C/c3cc(F)cc(C(F)(F)F)c3)CC2)CC1 (centres undefined)    0.7

---

- target-of-assay: Solute carrier family 2, facilitated glucose transporter member 1 (Homo sapiens) (UniProt P11166)
- Sequence (P11166 whole entry): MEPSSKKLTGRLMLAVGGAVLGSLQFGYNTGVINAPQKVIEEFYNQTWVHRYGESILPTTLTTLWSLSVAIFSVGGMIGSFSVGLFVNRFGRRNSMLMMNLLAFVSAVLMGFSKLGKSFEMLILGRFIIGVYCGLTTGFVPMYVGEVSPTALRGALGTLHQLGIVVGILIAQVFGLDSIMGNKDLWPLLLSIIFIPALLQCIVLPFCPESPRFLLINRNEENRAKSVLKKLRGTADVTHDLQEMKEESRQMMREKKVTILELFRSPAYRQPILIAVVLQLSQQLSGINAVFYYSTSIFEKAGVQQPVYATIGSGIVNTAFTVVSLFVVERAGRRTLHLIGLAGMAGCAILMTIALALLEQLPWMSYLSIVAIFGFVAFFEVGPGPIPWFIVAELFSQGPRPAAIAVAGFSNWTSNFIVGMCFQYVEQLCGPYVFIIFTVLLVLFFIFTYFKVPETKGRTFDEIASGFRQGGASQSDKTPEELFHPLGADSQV
- assay-details: ST_JUDE_LEISH: Cytotoxicity at 2uM final concentration against transgenic Leishmania Mexicana promastigotes LmGLUT1 that are glucose transport deficient and complemented with the human glucose transporter GLUT1. Activity is measured by DNA content using SYBR green in vitro
- Assay type: functional
measured-parameter: inhibition (%)

1) Clc1ccccc1CNc1noc(-c2sccc2Br)n1    0.33
2) COc1ccc2nccc([C@@H](O)CN3CCC(NC(=O)/C=C/c4cccc(-c5ccccc5)c4)CC3)c2c1    7.76
3) Cc1cc(NCCC(=O)Nc2ccccc2)nc(NCc2ccccc2C)n1    11
4) CC1(C)N=C(N)N=C(Nc2ccc(F)c(F)c2)N1    0.74
5) CS(=O)(=O)N1CC2(CCN(CCC(NC(=S)Nc3ccccc3)c3ccc(Cl)c(Cl)c3)CC2)c2ccccc21 (stereo not given)    3.72

---

Catalogue of inhibition readings, one per entry.
- target-of-assay: Hexose transporter 1 (Plasmodium falciparum) (UniProt O97467)
- assay-details: ST_JUDE_LEISH: Cytotoxicity at 2uM final concentration against transgenic Leishmania Mexicana promastigotes LmPfHT that are glucose transport deficient and complemented with the Plasmodium falciparum hexose transporter. Activity is measured by DNA content using SYBR green in vitro
- Type: functional
measured-parameter: inhibition (%)

1. COc1ccc(C2CCN(CCCCNC(=O)c3ccc(NC(=O)c4ccc(Cl)cc4)cc3)C2)c(OC)c1 (centres undefined)    0.01
2. c1cc(CN2CCCCC2)cc(-c2csc(-c3nc4ccccc4[nH]3)c2)c1    4.57
3. C=CCOC(=O)N1CCC(CNCc2ccc(-c3cccc(-c4nc5cccc(C)c5[nH]4)c3)cc2)C1 (centres undefined)    -0.4
4. C(=NN=c1cc[nH]c2ccccc12)c1ccncc1    4.32
5. CCN1CCN(c2cc(C)c3cc(NC(=O)C=Cc4cccc(OC)c4OC)ccc3n2)CC1    11.3
6. CCOC(=O)c1ccc(NC(=O)NCCCC2CCCN(CCCCCNC(=O)/C=C/c3ccc(Cl)c(Cl)c3)C2)cc1 (centres undefined)    1.66
7. CN1C(=CC(=O)NC(=O)c2ccccc2)C(C)(C)c2ccccc21    0.41
8. NC1=NC(c2ccccc2)N(c2ccccc2)C(N)=N1 (centres undefined)    -4.07
9. CSc1ccc(CN2CCC(NC(=O)c3ccc(-c4ccc(N(C)C)cc4)s3)CC2)cc1    0.28
10. N=C(N)NN=Cc1c2ccc(Cl)cc2c(Cl)c2ccc(Cl)cc12    23.8
11. CCCN(CCC)CCCNc1ccc(C(=O)Nc2ccc(OCC)cc2)cc1[N+](=O)[O-]    19.4
12. CNC(=O)c1ccccc1Nc1nc(Nc2cccnc2)ncc1C    -0.32
13. CCCCN(CCCC)CCC(O)C(=Cc1ccc(Cl)cc1Cl)c1ccc(C(F)(F)F)cc1N (centres undefined)    0.65
14. Cc1cccn2c(=O)c3cc(C(=O)NCCc4ccccc4)c(=N)n(CCCOC(C)C)c3nc12    6.64
15. Cc1cccc2nc(-c3cccc(-c4ccc(NC(=O)c5cnccc5C(F)(F)F)cc4)c3)[nH]c12    -0.42
16. CC1=C(C(=O)OCCOCc2ccccc2)C(c2ccccc2C(F)(F)F)C(C(=O)OCCOCc2ccccc2)=C(C)N1    -0.98
17. COc1ccc2nccc([C@@H](O)CN3CCC(NC(=O)C(c4cc5ccccc5o4)N4CCC(Cc5ccccc5)CC4)CC3)c2c1 (some centres undefined)    3.03
18. CC(C)C[C@H](NC(=O)c1cc2ccccc2s1)C(=O)N[C@H]1CCN(Cc2ccc(OC[C@@H]3CCCN3C)c(Cl)c2)C1    10.6
19. CC(C)N1CCC(N(Cc2ccc(-c3ccc(C(F)(F)F)cc3)cc2)C(=O)Cn2c(CCc3cccc(F)c3F)cc(=O)c3cn(C)nc32)CC1    8.4

Where do the numbers come from? From ChEMBL document CHEMBL3433997.
